target: Bone morphogenetic protein receptor type-1A (Homo sapiens)
protocol description: Inhibition of ALK3 (unknown origin)
value kind: pIC50
As a rule, pIC50 stands for the negative log10 of the concentration, concentration in M.

query: Notebook: pull reported pIC50 for Bone morphogenetic protein receptor type-1A (Homo sapiens), entry Nc1ncc(-c2cnn(C3CCNCC3)c2)c2c1C(=O)N(C1C3CC4CC(C3)CC1C4)CC2 (stereo unspecified)
result: 6.40

----------
target: Bone morphogenetic protein receptor type-1A (Homo sapiens, UniProt P36894)
Sequence (P36894 whole entry, the tested form may be a part): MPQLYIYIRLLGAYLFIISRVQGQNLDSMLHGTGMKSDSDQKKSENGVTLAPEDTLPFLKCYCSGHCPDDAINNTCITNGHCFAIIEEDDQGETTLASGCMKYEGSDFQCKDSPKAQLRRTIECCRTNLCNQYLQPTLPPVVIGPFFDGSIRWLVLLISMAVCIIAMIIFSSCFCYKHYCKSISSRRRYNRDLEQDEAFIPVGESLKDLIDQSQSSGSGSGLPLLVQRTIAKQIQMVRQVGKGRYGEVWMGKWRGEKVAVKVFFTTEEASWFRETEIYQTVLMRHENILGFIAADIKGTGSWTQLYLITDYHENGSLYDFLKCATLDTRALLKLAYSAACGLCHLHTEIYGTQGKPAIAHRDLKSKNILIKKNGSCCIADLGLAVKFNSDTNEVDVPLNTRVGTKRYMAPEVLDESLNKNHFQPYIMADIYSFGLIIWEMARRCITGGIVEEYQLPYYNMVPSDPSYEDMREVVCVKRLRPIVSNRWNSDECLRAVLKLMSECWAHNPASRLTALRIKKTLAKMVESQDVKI
protocol description: Inhibition of human recombinant ALK3 (198 to 525 residues) expressed in baculovirus-infected insect cells by ADP-Glo kinase assay
value kind: pIC50
As a rule, pIC50 stands for the negative log10 of the concentration, concentration in M.

query: For `C[C@@H]1CCCN1Cc1ccc(-c2cnc(N)c(C(=O)N[C@H]3CC[C@](C)(O)CC3)c2)cc1F` , what is its reported pIC50?
result: 6.25

----------
target: UniProtKB P37023
Sequence (P37023 whole entry): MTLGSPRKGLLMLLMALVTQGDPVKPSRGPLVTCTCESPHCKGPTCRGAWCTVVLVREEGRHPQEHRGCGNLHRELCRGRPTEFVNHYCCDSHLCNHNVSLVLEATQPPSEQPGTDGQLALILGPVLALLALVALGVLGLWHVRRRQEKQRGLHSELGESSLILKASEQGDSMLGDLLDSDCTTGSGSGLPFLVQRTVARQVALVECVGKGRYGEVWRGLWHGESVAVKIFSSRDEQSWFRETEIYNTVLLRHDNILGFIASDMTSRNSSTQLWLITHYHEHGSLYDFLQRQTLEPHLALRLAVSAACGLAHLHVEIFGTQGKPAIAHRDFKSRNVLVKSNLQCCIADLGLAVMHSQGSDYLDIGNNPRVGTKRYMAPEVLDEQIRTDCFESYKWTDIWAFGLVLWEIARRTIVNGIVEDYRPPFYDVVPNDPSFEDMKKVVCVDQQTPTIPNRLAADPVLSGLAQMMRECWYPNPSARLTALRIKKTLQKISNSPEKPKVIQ
value kind: pIC50
As a rule, pIC50 stands for the negative log10 of the concentration, concentration in M.

query: Notebook: pull reported pIC50 for UniProtKB P37023, entry Nc1ncc(-c2cnn(C3CCNCC3)c2)c2c1C(=O)N(C1C3CC4CC(C3)CC1C4)CC2 (stereo unspecified)
result: 7.57

----------
target: Activin receptor type-1 (Homo sapiens)
Sequence (Q04771 whole entry, the tested form may be a part): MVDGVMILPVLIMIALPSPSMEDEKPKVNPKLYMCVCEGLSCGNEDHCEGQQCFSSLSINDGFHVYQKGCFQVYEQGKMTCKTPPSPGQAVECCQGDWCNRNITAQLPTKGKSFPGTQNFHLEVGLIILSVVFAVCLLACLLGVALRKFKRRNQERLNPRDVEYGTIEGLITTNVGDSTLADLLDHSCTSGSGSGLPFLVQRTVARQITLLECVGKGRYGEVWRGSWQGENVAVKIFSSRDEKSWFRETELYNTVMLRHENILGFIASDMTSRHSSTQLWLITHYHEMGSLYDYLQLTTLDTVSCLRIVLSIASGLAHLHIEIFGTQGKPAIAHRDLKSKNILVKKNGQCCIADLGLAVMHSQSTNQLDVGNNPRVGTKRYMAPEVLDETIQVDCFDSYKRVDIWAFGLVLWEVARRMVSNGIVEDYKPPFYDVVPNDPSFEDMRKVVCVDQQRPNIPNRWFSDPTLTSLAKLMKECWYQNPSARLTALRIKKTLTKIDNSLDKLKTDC
protocol description: Inhibition of human recombinant ALK2 (172 to 499 residues) expressed in baculovirus-infected insect cells by ADP-Glo kinase assay
value kind: pIC50
As a rule, pIC50 stands for the negative log10 of the concentration, concentration in M.

query: For `C[C@@H]1CCCN1Cc1ccc(-c2cnc(N)c(C(=O)N[C@H]3CC[C@](C)(O)CC3)c2)cc1F` , what is its reported pIC50?
result: 8.44
